All figures here come from ChEMBL document CHEMBL1122134.

Tested on: Mus musculus
Assay: Number of cures out of five mice (Mus musculus) infected with Plasmodium berghei at 10 mg/kg(X 1) subcutaneous administration
testReadout: Cures

Here is how some molecules turned out for Cures.
molecule	Cures
COc1cc(NC(C)CCCN)c2nccc(C)c2c1Oc1ccc(Cl)cc1Cl.O=P(O)(O)O (centres undefined)	1
COc1cc(NC(C)CCCN)c2nccc(C)c2c1Oc1ccc(F)cc1.O=P(O)(O)O (centres undefined)	3

Which measured Cures value corresponds to COc1cc(NC(C)CCCN)c2nccc(C)c2c1Oc1cccc(C(F)(F)F)c1.O=C(O)CCC(=O)O (centres undefined) ?
2

Please answer likewise for COc1cc(NC(C)CCCN)c2nccc(C)c2c1Oc1ccc(Cl)c(Cl)c1.O=P(O)(O)O (centres undefined)
5

###

Catalogue of Molar primaquine Index readings, one per entry.
Assay: Molar primaquine Index value of compound was determined
Format: functional
Number only, no unit.

compound	numericValue
COc1cc(NC(C)CCCN)c2ncccc2c1 (stereo unspecified)	1

Which measured Molar primaquine Index value corresponds to COc1cc(NC(C)CCCN)c2nccc(C)c2c1Oc1cccc(C(F)(F)F)c1.O=C(O)CCC(=O)O (stereo unspecified) ?
4.8

###

Test: Molar primaquine Index value of compound was determined
Format: functional
testReadout: Molar primaquine Index
Number only, no unit.

Here is how some compounds turned out for Molar primaquine Index.
compound	Molar primaquine Index
COc1ccc(Oc2c(OC)cc(NC(C)CCCN)c3nccc(C)c23)cc1.O=P(O)(O)O (centres undefined)	4.3
COc1cc(NC(C)CCCN)c2nccc(C)c2c1Oc1ccc(Cl)c(Cl)c1.O=P(O)(O)O (centres undefined)	1.3
COc1cc(NC(C)CCCN)c2nccc(C)c2c1Oc1ccc(Cl)cc1Cl.O=P(O)(O)O (centres undefined)	1.3

Next, consider the following compound.
Which measured Molar primaquine Index value corresponds to COc1cc(NC(C)CCCN)c2nccc(C)c2c1Oc1ccc(F)cc1.O=P(O)(O)O (centres undefined) ?
4.2
